Kindly supply the reported pEC50 values for the records listed here.
molecular target: UniProt:Q13546; test: RIPK1-ADP-Glo Enzymatic Assay; format: biochemical; details: recombinant GST-RIPK1 kinase domain (residues 1-327), 25 nM, ten-point titration, 30 minutes pre-incubation
Sequence (Q13546 1-327): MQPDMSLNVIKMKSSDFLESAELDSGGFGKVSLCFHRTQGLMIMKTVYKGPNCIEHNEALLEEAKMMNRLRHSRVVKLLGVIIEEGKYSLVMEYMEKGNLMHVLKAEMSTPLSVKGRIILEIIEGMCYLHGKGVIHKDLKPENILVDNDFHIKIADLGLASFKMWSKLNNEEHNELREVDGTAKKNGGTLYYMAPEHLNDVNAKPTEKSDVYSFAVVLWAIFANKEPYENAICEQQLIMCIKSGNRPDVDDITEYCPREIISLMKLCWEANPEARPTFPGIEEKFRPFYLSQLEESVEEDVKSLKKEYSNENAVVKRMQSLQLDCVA
pEC50 field: float, defined as -log10 of concentration (mol/L).

Lab request: please report pEC50 under test system UniProt:Q13546 for O=C(c1cc(F)ccc1F)N1CCC2(CC1)CN1CC[C@@H](c3cc(F)cc(F)c3)N1C2=O
7.82

Lab request: please report pEC50 under test system UniProt:Q13546 for O=C1N2[C@H](c3cc(F)cc(F)c3)CCN2CC12CCN(c1nc(Cl)nc3[nH]ncc13)CC2
6.07

Lab request: please report pEC50 under test system UniProt:Q13546 for O=C1N2[C@H](c3cc(F)cc(F)c3)CCN2CC12CCN(c1cccc(Cl)n1)CC2
7.62

Lab request: please report pEC50 under test system UniProt:Q13546 for CC(=O)c1cccc(N2CCC3(CC2)CN2CC[C@@H](c4cc(F)cc(F)c4)N2C3=O)n1
7.60

Lab request: please report pEC50 under test system UniProt:Q13546 for CC(C)c1nccc(N2CCC3(CC2)CN2CC[C@@H](c4cc(F)cc(F)c4)N2C3=O)n1
6.53

Lab request: please report pEC50 under test system UniProt:Q13546 for Cc1cc(N2CCC3(CC2)CN2CC[C@@H](c4cc(F)cc(F)c4)N2C3=O)nc(Cl)n1
6.84

Lab request: please report pEC50 under test system UniProt:Q13546 for Cc1nc(N2CCC3(CC2)CN2CC[C@@H](c4cc(F)cc(F)c4)N2C3=O)ccc1Cl
7.64

Lab request: please report pEC50 under test system UniProt:Q13546 for O=C1N2[C@H](c3cc(F)cc(F)c3)CCN2CC12CCN(c1cccc(-n3nccc3C(F)(F)F)n1)CC2
8.22

Lab request: please report pEC50 under test system UniProt:Q13546 for O=C1N2[C@H](c3cc(F)cc(F)c3)CCN2CC12CCN(c1cc(-c3ccccc3)ncn1)CC2
7.82

Lab request: please report pEC50 under test system UniProt:Q13546 for O=C1N2[C@H](c3cc(F)cc(F)c3)CCN2CC12CCN(c1nnc(-c3ccccc3)o1)CC2
6.48

Lab request: please report pEC50 under test system UniProt:Q13546 for O=C(c1cc(F)c(F)cc1F)N1CCC2(CC1)CN1CC[C@@H](c3cc(F)cc(F)c3)N1C2=O
7.72

Lab request: please report pEC50 under test system UniProt:Q13546 for N#Cc1ccc(C(=O)N2CCC3(CC2)CN2CC[C@@H](c4cc(F)cc(F)c4)N2C3=O)cc1F
6.07

Lab request: please report pEC50 under test system UniProt:Q13546 for Cc1cnc(N2CCC3(CC2)CN2CC[C@@H](c4cc(F)cc(F)c4)N2C3=O)nc1
6.41

Lab request: please report pEC50 under test system UniProt:Q13546 for COc1cc(F)cc(C(=O)N2CCC3(CC2)CN2CC[C@@H](c4cc(F)cc(F)c4)N2C3=O)c1
7.59

Lab request: please report pEC50 under test system UniProt:Q13546 for Cc1ccc(C(=O)N2CCC3(CC2)CN2CC[C@@H](c4cc(F)cc(F)c4)N2C3=O)cc1
7.42

Lab request: please report pEC50 under test system UniProt:Q13546 for O=C(c1ncccn1)N1CCC2(CC1)CN1CC[C@@H](c3cc(F)cc(F)c3)N1C2=O
6.36

Lab request: please report pEC50 under test system UniProt:Q13546 for Cc1ccc(C(=O)N2CCC3(CC2)CN2CC[C@@H](c4cc(F)cc(F)c4)N2C3=O)cc1F
7.34

Lab request: please report pEC50 under test system UniProt:Q13546 for CSc1cnc(N2CCC3(CC2)CN2CC[C@@H](c4cc(F)cc(F)c4)N2C3=O)cn1
7.52

Lab request: please report pEC50 under test system UniProt:Q13546 for O=C(c1ccc(Cl)c(F)c1)N1CCC2(CC1)CN1CC[C@@H](c3cc(F)cc(F)c3)N1C2=O
7.64

Lab request: please report pEC50 under test system UniProt:Q13546 for CCn1cnc2c(N3CCC4(CC3)CN3CC[C@@H](c5cc(F)cc(F)c5)N3C4=O)ncnc21
6.12

Lab request: please report pEC50 under test system UniProt:Q13546 for Cc1ccnc(N2CCC3(CC2)CN2CC[C@@H](c4cc(F)cc(F)c4)N2C3=O)n1
6.20

Lab request: please report pEC50 under test system UniProt:Q13546 for O=C(c1ccncc1)N1CCC2(CC1)CN1CC[C@@H](c3cc(F)cc(F)c3)N1C2=O
6.38

Lab request: please report pEC50 under test system UniProt:Q13546 for CC(C)c1nc(Cl)cc(N2CCC3(CC2)CN2CC[C@@H](c4cc(F)cc(F)c4)N2C3=O)n1
6.82

Lab request: please report pEC50 under test system UniProt:Q13546 for CN(C)C(=O)c1ccnc(N2CCC3(CC2)CN2CC[C@@H](c4cc(F)cc(F)c4)N2C3=O)n1
6.95

Lab request: please report pEC50 under test system UniProt:Q13546 for O=C1N2[C@H](c3cc(F)cc(F)c3)CCN2CC12CCN(c1cc(-c3ccco3)ccn1)CC2
6.88

Lab request: please report pEC50 under test system UniProt:Q13546 for CCCOc1ccnc(N2CCC3(CC2)CN2CC[C@@H](c4cc(F)cc(F)c4)N2C3=O)c1
6.04

Lab request: please report pEC50 under test system UniProt:Q13546 for O=C1N2[C@H](c3cc(F)cc(F)c3)CCN2CC12CCN(c1cnc(-c3cccc(Cl)c3)cn1)CC2
7.02

Lab request: please report pEC50 under test system UniProt:Q13546 for O=C1N2[C@H](c3cc(F)cc(F)c3)CCN2CC12CCN(c1cccc(F)n1)CC2 [Example 1.71]
7.55

Lab request: please report pEC50 under test system UniProt:Q13546 for O=C(c1cncc(F)c1)N1CCC2(CC1)CN1CC[C@@H](c3cc(F)cc(F)c3)N1C2=O
6.35

Lab request: please report pEC50 under test system UniProt:Q13546 for CNC(=O)c1ccnc(N2CCC3(CC2)CN2CC[C@@H](c4cc(F)cc(F)c4)N2C3=O)n1
6.97
